# Target Desc: human JAK1 (a.a. 837-1142)
# Method Description: In vitro JAK kinase assay (HTRF, phosphorylation of a biotinylated peptide), JAK1
# Format: biochemical
# Test Parameters: ratio of JAK2 IC50 to JAK1 IC50, measured at 1 mM ATP
Class (by IC50 Ratio JAK2/JAK1) -- bin 1 (below 4), bin 2 (4 to below 7), bin 3 (7 or more)

1. N#CCC1(n2cc(-c3ncnc4[nH]ccc34)cn2)CN(C2CCN(Cc3cccc(Oc4ccccc4)c3)CC2)C1; bin 1
2. N#CCC1(n2cc(-c3ncnc4[nH]ccc34)cn2)CN(C2CCN(Cc3cccc(C(F)(F)F)c3F)CC2)C1; bin 3
3. N#CCC1(n2cc(-c3ncnc4[nH]ccc34)cn2)CN(C2CC3CCC(C2)N3C(=O)c2ccnc(C(F)(F)F)c2F)C1 (stereo not shown); bin 3
4. N#CCC1(n2cc(-c3ncnc4[nH]ccc34)cn2)CN(C2CCN(C(=O)c3sc(C(F)(F)F)cc3O)CC2)C1; bin 2
5. CC1CC(N2CC(CC#N)(n3cc(-c4ncnc5[nH]ccc45)cn3)C2)CCN1Cc1ccc(N(C)C)c(C#N)c1F (single isomer, unassigned) [Example 243]; bin 2

Proceed to the following item.
Query block: Input "N#CCC1(n2cc(-c3c(F)cnc4[nH]ccc34)cn2)CN(C2CCN(C(=O)Nc3ncccc3C(F)(F)F)CC2)C1" ; output its category
Result block: bin 2

----------
Quick reference: IC50 of the listed items.
# Target Desc: human JAK1 (a.a. 837-1142) (Homo sapiens, UniProt P23458)
# Method Description: In vitro JAK kinase assay (HTRF, phosphorylation of a biotinylated peptide), JAK1
# Assay type: biochemical
# Test Parameters: measured at 1 mM ATP

Query block: Write down IC50 measured for item N#CCC1(n2cc(-c3c(F)cnc4[nH]ccc34)cn2)CN(C2CCN(C(=O)c3ccnc(C(F)(F)F)c3F)CC2)C1 [Example 314]
Result block: ≤ 5 nM

Query block: Write down IC50 measured for item N#CCC1(n2cc(-c3ncnc4[nH]ccc34)cn2)CN(C2CCN(C(=O)OCC3CC3)CC2)C1 [Example 391]
Result block: 5 to 20 nM

Query block: Write down IC50 measured for item N#CCC1(n2cc(-c3ncnc4[nH]ccc34)cn2)CN(C2CCN(C(=O)c3cc4c(C(F)(F)F)cccc4s3)CC2)C1 [Example 93]
Result block: ≤ 5 nM

Query block: Write down IC50 measured for item N#CCC1(n2cc(-c3ncnc4[nH]ccc34)cn2)CN(C2CC3CCC(C2)N3C(=O)c2ccc(C#N)c(F)c2)C1 (stereo not shown) [Example 140]
Result block: 5 to 20 nM

----------
# Target Desc: human JAK1 (a.a. 837-1142)
# Method Description: In vitro JAK kinase assay (HTRF, phosphorylation of a biotinylated peptide), JAK1
# Format: biochemical
# Test Parameters: ratio of JAK2 IC50 to JAK1 IC50, measured at 1 mM ATP
# note: boundary value 5 maps to Criterion not met; IC50 Ratio JAK2/JAK1 below it maps to Criterion met

Worked set:
1. N#CCC1(n2cc(-c3ncnc4[nH]ccc34)cn2)CN(C2CCN(C(=O)c3ccc(-c4ccc(C#N)cc4)cc3)CC2)C1; Criterion not met
2. N#CCC1(n2cc(-c3ncnc4[nH]ccc34)cn2)CN(C2CCN(C(=O)Nc3ncc(F)cc3F)CC2)C1; Criterion not met
3. N#CCC1(n2cc(-c3ncnc4[nH]ccc34)cn2)CN(C2CCN(Cc3cc(Cl)cc(Cl)c3)CC2)C1; Criterion met

Query block: Find out if reported IC50 Ratio JAK2/JAK1 for "N#CCC1(n2cc(-c3ncnc4[nH]ccc34)cn2)CN(C2CCN(C(=O)c3cccc(Cl)n3)CC2)C1" is less than 5
Result block: Criterion not met

Query block: Find out if reported IC50 Ratio JAK2/JAK1 for "N#CCC1(n2cc(-c3ncnc4[nH]ccc34)cn2)CN(C2CCN(C(=O)Nc3ccccc3OC(F)(F)F)CC2)C1" is less than 5
Result block: Criterion not met

Query block: Find out if reported IC50 Ratio JAK2/JAK1 for "N#CCC1(n2cc(-c3ncnc4[nH]ccc34)cn2)CN(C2CCN(C(=O)c3cc(Cl)cc(Cl)c3)CC2)C1" is less than 5
Result block: Criterion not met

Query block: Find out if reported IC50 Ratio JAK2/JAK1 for "N#CCC1(n2cc(-c3ncnc4[nH]ccc34)cn2)CN(C2CCN(C(=O)c3cc4cccc(C(F)(F)F)c4s3)CC2)C1" is less than 5
Result block: Criterion met

Query block: Find out if reported IC50 Ratio JAK2/JAK1 for "COc1cc(C(=O)N2CCC(N3CC(CC#N)(n4cc(-c5ncnc6[nH]ccc56)cn4)C3)CC2)ccc1F" is less than 5
Result block: Criterion met

Query block: Find out if reported IC50 Ratio JAK2/JAK1 for "N#CCC1(n2cc(-c3c(F)cnc4[nH]ccc34)cn2)CN(C2CCN(C(=O)Nc3ccncc3C(F)(F)F)CC2)C1" is less than 5
Result block: Criterion not met

Query block: Find out if reported IC50 Ratio JAK2/JAK1 for "N#CCC1(n2cc(-c3c(F)cnc4[nH]ccc34)cn2)CN(C2CCN(C(=O)Nc3cnccc3C(F)(F)F)CC2)C1" is less than 5
Result block: Criterion not met

Query block: Find out if reported IC50 Ratio JAK2/JAK1 for "N#CCC1(n2ccc(-c3ncnc4[nH]ccc34)c2)CN(C2CCN(C(=O)c3cccc(OC(F)(F)F)c3F)CC2)C1" is less than 5
Result block: Criterion not met

Query block: Find out if reported IC50 Ratio JAK2/JAK1 for "Cc1cc(C(=O)N2CCC(N3CC(CC#N)(n4cc(-c5ncnc6[nH]ccc56)cn4)C3)CC2)cs1" is less than 5
Result block: Criterion met

Query block: Find out if reported IC50 Ratio JAK2/JAK1 for "CC(C)NCc1cc(C(=O)N2CCC(N3CC(CC#N)(n4cc(-c5ncnc6[nH]ccc56)cn4)C3)CC2)nc(C(F)(F)F)n1" is less than 5
Result block: Criterion not met

These entries and their values trace back to patent US9999619B2.
